assayName: Selectivity index, ratio of IC50 for human FEH cells to MIC for multidrug-resistant Mycobacterium tuberculosis
Assay type: toxicity, cell-based
quantityMeasured: selectivity ratio

smilesString: Nc1nc(NCC(=O)N[C@@H](CCC(=O)O)C(=O)O)c2nc[nH]c2n1
quantityMeasured: selectivity ratio
result: > 25

Value lookup for selectivity ratio; key = "O.O=C(O)CC[C@H](NC(=O)CNc1ncnc2[nH]cnc12)C(=O)O"
> 25

Values were extracted from ChEMBL document CHEMBL3804804.
